Please provide measured inhibition at 48 h, 10 µM for the entries that follow.
# Subject of test: ABCG2 (Homo sapiens)
# Sequence (Q9UNQ0 whole entry): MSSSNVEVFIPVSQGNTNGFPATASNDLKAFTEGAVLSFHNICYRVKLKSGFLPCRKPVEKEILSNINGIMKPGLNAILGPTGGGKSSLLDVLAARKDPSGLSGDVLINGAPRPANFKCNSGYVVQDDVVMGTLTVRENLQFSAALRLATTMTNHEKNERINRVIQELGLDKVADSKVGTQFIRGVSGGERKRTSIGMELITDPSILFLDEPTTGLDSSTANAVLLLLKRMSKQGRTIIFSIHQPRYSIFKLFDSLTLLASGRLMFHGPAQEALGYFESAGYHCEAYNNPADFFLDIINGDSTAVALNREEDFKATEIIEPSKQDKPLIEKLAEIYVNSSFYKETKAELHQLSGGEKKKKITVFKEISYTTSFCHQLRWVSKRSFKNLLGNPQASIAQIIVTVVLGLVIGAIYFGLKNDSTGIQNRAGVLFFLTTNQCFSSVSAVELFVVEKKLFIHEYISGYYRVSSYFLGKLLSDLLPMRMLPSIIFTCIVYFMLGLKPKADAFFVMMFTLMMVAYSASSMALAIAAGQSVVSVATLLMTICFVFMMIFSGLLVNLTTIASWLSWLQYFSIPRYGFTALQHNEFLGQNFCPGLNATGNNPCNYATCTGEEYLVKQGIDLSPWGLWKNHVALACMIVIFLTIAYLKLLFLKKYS
# Assay summary: Inhibition of ABCG2-mediated mitoxantrone efflux expressed in HEK293 cells at 10 uM after 48 hrs by flow cytometric analysis
# Type: cell-based
# Settings: HEK293 cells expressing ABCG2, probe mitoxantrone
Field: numeric (%). Do not append units.

Entry COc1cccc(OC)c1C(=O)/C=C/c1cn(C)c2ccccc12 : inhibition at 48 h, 10 µM on ABCG2 (Homo sapiens) = 17.4

Entry COc1cc(OC)c(C(=O)/C=C/c2cn(C)c3ccccc23)c(OC)c1 : inhibition at 48 h, 10 µM on ABCG2 (Homo sapiens) = 30

Entry COc1cc(/C=C/C(=O)c2cn(C)c3ccccc23)cc(OC)c1OC : inhibition at 48 h, 10 µM on ABCG2 (Homo sapiens) = 70

Entry COc1ccc(C(=O)/C=C/c2cn(C)c3ccccc23)cc1 : inhibition at 48 h, 10 µM on ABCG2 (Homo sapiens) = 89

Entry COc1ccc(/C=C/C(=O)c2cn(C)c3ccccc23)c(OC)c1 : inhibition at 48 h, 10 µM on ABCG2 (Homo sapiens) = 108

Entry COc1cc(OC)c(/C=C/C(=O)c2cn(C)c3ccccc23)c(OC)c1 : inhibition at 48 h, 10 µM on ABCG2 (Homo sapiens) = 109

Entry COc1ccc(C(=O)/C=C/c2cn(C)c3ccccc23)c(OC)c1 : inhibition at 48 h, 10 µM on ABCG2 (Homo sapiens) = 125

Entry Cn1cc(/C=C/C(=O)c2cn(C)c3ccccc23)c2ccccc21 : inhibition at 48 h, 10 µM on ABCG2 (Homo sapiens) = 98.8

Entry COc1cccc(OC)c1/C=C/C(=O)c1cn(C)c2ccccc12 : inhibition at 48 h, 10 µM on ABCG2 (Homo sapiens) = 113

Entry COc1cc(OC)c(/C=C/C(=O)c2cn(C)c3ccc(OC)cc23)c(OC)c1 : inhibition at 48 h, 10 µM on ABCG2 (Homo sapiens) = 111

Entry COc1ccc(C(=O)/C=C/c2ccc(OC)c(OC)c2)c(O)c1 : inhibition at 48 h, 10 µM on ABCG2 (Homo sapiens) = 76.5

###

# Tested on: HEK293
# Assay summary: Cytotoxicity against human HEK293 cells transfected with ABCG2 up to 100 uM after 72 hrs by MTT assay
# Format: ADME, cell-based
# Settings: hek293, 72 h
Value type: Activity

Study these solved cases before continuing.
COc1cc(OC)c(/C=C/C(=O)c2cn(C)c3ccccc23)c(OC)c1: Non-toxic
COc1cccc(OC)c1/C=C/C(=O)c1cn(C)c2ccccc12: Non-toxic
COc1cc(OC)c(/C=C/C(=O)c2cn(C)c3ccc(OC)cc23)c(OC)c1: Non-toxic
COc1cccc(/C=C/C(=O)c2c(O)cc(OC)cc2OC)c1: Non-toxic
COc1cc(O)c(C(=O)/C=C/c2c(OC)cccc2OC)c(OC)c1: Non-toxic

// next entry
Reported Activity for COc1cc(/C=C/C(=O)c2c(O)cc(OC)cc2OC)cc(OC)c1 was Non-toxic

###

# Subject of test: ABCG2 (Homo sapiens)
# Assay summary: Inhibition of ABCG2-mediated mitoxantrone efflux expressed in HEK293 cells at 2 uM after 48 hrs by flow cytometric analysis
# Type: cell-based
# Settings: HEK293 cells expressing ABCG2, probe mitoxantrone
Rule: inhibition at 48 h, 2 µM of 60% or more gives fulfilled; anything lower gives not fulfilled.

Prompt: Exam item: decide whether the reported inhibition at 48 h, 2 µM for COc1cc(/C=C/C(=O)c2cn(C)c3ccccc23)cc(OC)c1OC is at least 60%.
Completion: not fulfilled

Prompt: Exam item: decide whether the reported inhibition at 48 h, 2 µM for COc1cc(OC)c(/C=C/C(=O)c2cn(C)c3ccc(OC)cc23)c(OC)c1 is at least 60%.
Completion: fulfilled

Prompt: Exam item: decide whether the reported inhibition at 48 h, 2 µM for COc1cccc(OC)c1C(=O)/C=C/c1cn(C)c2ccccc12 is at least 60%.
Completion: not fulfilled

Prompt: Exam item: decide whether the reported inhibition at 48 h, 2 µM for COc1cc(OC)c(C(=O)/C=C/c2cn(C)c3ccccc23)c(OC)c1 is at least 60%.
Completion: not fulfilled

Prompt: Exam item: decide whether the reported inhibition at 48 h, 2 µM for COc1ccc(C(=O)/C=C/c2ccc(OC)c(OC)c2)c(O)c1 is at least 60%.
Completion: fulfilled

Prompt: Exam item: decide whether the reported inhibition at 48 h, 2 µM for COc1cc(OC)c(/C=C/C(=O)c2cn(C)c3ccccc23)c(OC)c1 is at least 60%.
Completion: fulfilled

Prompt: Exam item: decide whether the reported inhibition at 48 h, 2 µM for COc1ccc(C(=O)/C=C/c2cn(C)c3ccccc23)c(OC)c1 is at least 60%.
Completion: fulfilled

Prompt: Exam item: decide whether the reported inhibition at 48 h, 2 µM for COc1cccc(OC)c1/C=C/C(=O)c1cn(C)c2ccccc12 is at least 60%.
Completion: fulfilled

Prompt: Exam item: decide whether the reported inhibition at 48 h, 2 µM for COc1ccc(C(=O)/C=C/c2cn(C)c3ccccc23)cc1 is at least 60%.
Completion: not fulfilled

Prompt: Exam item: decide whether the reported inhibition at 48 h, 2 µM for COc1ccc(/C=C/C(=O)c2cn(C)c3ccccc23)c(OC)c1 is at least 60%.
Completion: fulfilled

Prompt: Exam item: decide whether the reported inhibition at 48 h, 2 µM for Cn1cc(/C=C/C(=O)c2cn(C)c3ccccc23)c2ccccc21 is at least 60%.
Completion: not fulfilled

###

Please provide measured pIC50 for the entries that follow.
# Subject of test: Broad substrate specificity ATP-binding cassette transporter ABCG2 (Homo sapiens, UniProt Q9UNQ0)
# Assay summary: Inhibition of ABCG2-mediated mitoxantrone efflux expressed in HEK293 cells after 48 hrs by flow cytometric analysis
Hey, just a heads up that pIC50 is the negative log base 10 of the concentration in molar.

Reported pIC50 for COc1cc(/C=C/C(=O)c2c(O)cc(OC)cc2OC)cc(OC)c1 was 6.77

Reported pIC50 for COc1cc(OC)c(/C=C/C(=O)c2cn(C)c3ccccc23)c(OC)c1 was 6.35

Reported pIC50 for COc1cccc(OC)c1/C=C/C(=O)c1cn(C)c2ccccc12 was 6.57

Reported pIC50 for COc1cccc(/C=C/C(=O)c2c(O)cc(OC)cc2OC)c1 was 6.59

Reported pIC50 for COc1cc(O)c(C(=O)/C=C/c2c(OC)cccc2OC)c(OC)c1 was 6.46

Reported pIC50 for COc1cc(OC)c(/C=C/C(=O)c2cn(C)c3ccc(OC)cc23)c(OC)c1 was 6.46

// data source = ChEMBL document CHEMBL2046378
